Origin of the recorded values: paper PMC10755728

# experiment.description: Plasma stability, rat
# Type: in vitro ADME
# cond: Wistar, pooled plasma, species profiling, read-out: Plasma T1/2 Rat (Wistar)
readout.label: half-life

[[record]]
compound = "Cc1ccc(NC(=O)C(CC(C)C)P(=O)(O)O)cc1 (stereo not drawn)"
value_observed = "> 240 min"

[[record]]
compound = "CC(C)CC(C(=O)Nc1ccc(F)cc1)P(=O)(O)O (stereo not drawn)"
value_observed = "> 240 min"

[[record]]
compound = "CC(C)CC(C(=O)Nc1ccc(C(F)(F)F)cc1)P(=O)(O)O (stereo not drawn)"
value_observed = "> 240 min"


---

# test.target: MMP-1 (Homo sapiens, UniProt P03956)
# Construct: purchased AnaSpec (Fremont, CA, USA)
# Sequence (P03956 100-469): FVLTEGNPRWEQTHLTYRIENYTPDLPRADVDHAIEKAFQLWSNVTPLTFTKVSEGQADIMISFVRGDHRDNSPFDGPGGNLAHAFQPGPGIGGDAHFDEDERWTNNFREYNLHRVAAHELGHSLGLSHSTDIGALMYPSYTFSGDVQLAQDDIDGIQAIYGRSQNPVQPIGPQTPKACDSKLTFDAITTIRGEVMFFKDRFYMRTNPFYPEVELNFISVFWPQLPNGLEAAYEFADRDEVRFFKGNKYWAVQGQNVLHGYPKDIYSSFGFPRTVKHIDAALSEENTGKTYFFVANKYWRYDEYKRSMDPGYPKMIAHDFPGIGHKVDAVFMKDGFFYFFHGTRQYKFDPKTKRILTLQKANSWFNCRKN
# experiment.description: MMP-1 inhibition assay
# Format: biochemical
# cond: 100 μM; read-out: % inhibition MMP-1
readout.label: inhibition at 100 µM

[[record]]
compound = "Cc1ccc(NC(=O)C(CC(C)C)C(=O)NO)cc1 (stereo not shown)"
value_observed = "29%"

[[record]]
compound = "Cc1ccc(NC(=O)C(CC(C)C)n2nccn2)cc1 (stereo not shown)"
value_observed = "< 10%"

[[record]]
compound = "Cc1ccc(NC(=O)C(CC(C)C)S(=O)(=O)O)cc1 (stereo not shown)"
value_observed = "12%"

[[record]]
compound = "Cc1ccc(NC(=O)C(CC(C)C)n2ccnn2)cc1 (stereo not shown)"
value_observed = "< 10%"

